Assay: Metabolic stability in rat liver microsomes
Type: in vitro ADME
Settings: both sexes, rat, microsomes, pH 7.4; RLM, 1 μM, 0.50 mg protein per mL, NADPH
Procedure: RLM Stability. Pooled RLM from adult male and female donors (Xenotech R1000) were used. Microsomal incubations were carried out in multi-well plates. […] Six time points over 60 minutes were analyzed, with 60 μL aliquots of the reaction mixture being drawn at each time point. […] Supernatant samples (80 μL) were diluted with water (240 μL) and analyzed for parent compound remaining using a fit-for-purpose liquid chromatography-tandem mass spectrometry (LC-MS/MS) method. […]
VALUE TYPE: microsomal CLint at 1 μM (µL/min/mg)
Numeric answer only, unit µL/min/mg assumed.

**Query** Quickly give me recorded microsomal CLint at 1 μM for CC(CNC(=N)CNc1ccccc1)Oc1cccc(Cl)c1.O=CO (centres unmarked) [BW501C67, formate]
**Result** 658

###

Recorded % Remaining (120 minutes), rat brain homogenate, one value per entry.
Details: Method 2: 3 times diluted homogenate, 37° C.
# output: number + unit

As a guide, the following entries are already answered.
COc1cccc(CCc2ccccc2OCC(O)CN(C)C)c1 (stereo not shown) [sarpogrelate M1] | 84%
CC(C)COc1ccc(CNC(=O)N(Cc2ccc(F)cc2)C2CCNCC2)cc1.Cl | 69%
COc1cccc(C(=O)Nc2ccc(OCCN3CCOCC3)c(-c3ccnn3C)c2)c1 | 101%

Now consider a different compound.
**Query** Quickly give me recorded % Remaining (120 minutes), rat brain homogenate for COc1cccc(OC(C)CNC(=N)Cc2cccc(C)c2)c1.O=C(O)C(F)(F)F (stereo not shown)
**Result** 100%

###

Test: Rat plasma protein binding (equilibrium dialysis)
Settings: rat, plasma, pH 7.4
Protocol: Method 1. Aliquots of 50 μL loading matrix containing test compound (2 μM final incubation concentration) or control compound in triplicate were transferred to a Sample Collection Plate. The samples were matched with opposite blank buffer to obtain a final volume of 100 μL, with a volume ratio of matrix: Dialysis Buffer of 1:1 (v:v) in each well. Stop solution (200 ng/ml tolbutamide and 200 ng/mL labetalol in ACN) was added to these TO samples of test compound and control compound. […]
VALUE TYPE: fraction unbound at 4 h, 5 μM
Answer with the value's number alone.

As a guide, the following entries are already answered.
CC(C)COc1ccc(CNC(=O)N(Cc2ccc(F)cc2)C2CCN(C(=O)CC[C@H](N)C(=O)O)CC2)cc1 [Compound 14a] | 0.06
COc1cccc(CCc2ccccc2OCC(CN(C)C)OC(=O)CCC(=O)O)c1 (stereo not shown) [sarpogrelate] | 0.002
COc1cccc(C(=O)Nc2ccc(OCCN3CCOCC3)c(-c3ccnn3C)c2)c1 | 0.091

Now consider a different compound.
**Query** Quickly give me recorded fraction unbound at 4 h, 5 μM for CC(C)COc1ccc(CNC(=O)N(Cc2ccc(F)cc2)C2CCNCC2)cc1.Cl [Compound 7, hydrochloride]
**Result** 0.038

###

Target: 5-HT2C receptor (Homo sapiens, UniProt P28335)
Construct: WuXi AppTec (Hong Kong) Limited (contract laboratory that ran the assay)
Sequence (P28335 33-458): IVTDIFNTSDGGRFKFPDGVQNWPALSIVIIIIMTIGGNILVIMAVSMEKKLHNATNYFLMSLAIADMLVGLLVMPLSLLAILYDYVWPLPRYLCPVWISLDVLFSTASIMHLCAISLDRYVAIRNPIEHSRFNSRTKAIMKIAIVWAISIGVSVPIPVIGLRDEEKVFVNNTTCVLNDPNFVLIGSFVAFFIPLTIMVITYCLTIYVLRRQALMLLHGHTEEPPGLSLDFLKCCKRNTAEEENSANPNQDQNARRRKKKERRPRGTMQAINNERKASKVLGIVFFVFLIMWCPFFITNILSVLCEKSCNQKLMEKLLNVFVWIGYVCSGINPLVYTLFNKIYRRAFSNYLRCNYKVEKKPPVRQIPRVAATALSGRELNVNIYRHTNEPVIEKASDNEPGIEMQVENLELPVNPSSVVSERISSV
Assay: biochemical
Type: binding
VALUE TYPE: pKi
The read-out pKi is expressed as -log10 of concentration in moles per litre.

**Query** Quickly give me recorded pKi for COc1cc(CC(C)N)c(OC)cc1I (stereo not shown) [DOI, 4-iodo-2,5-dimethoxyamphetamine]
**Result** 7.15

###

Assay: in vivo
Type: in vivo, rat
Conditions: male, Sprague Dawley, rat, in vivo; calculated using 1 mg/kg data; read-out: Free Brain:Free Plasma (0.5 h)
VALUE TYPE: Kp at 0.5 h
Answer with the value's number alone.

CC(CNC(=N)CNc1ccccc1)Oc1cccc(Cl)c1.O=CO (centres unmarked) [BW501C67, formate] | 0.0052

**Query** Quickly give me recorded Kp at 0.5 h for CC(C)COc1ccc(CNC(=O)N(Cc2ccc(F)cc2)C2CCN(C(=O)CC[C@H](N)C(=O)O)CC2)cc1 [Compound 14a]
**Result** 0

###

Target: 5-HT2A receptor (Homo sapiens)
Construct: WuXi AppTec (Hong Kong) Limited (contract laboratory that ran the assay)
Assay: 5-HT2A radioligand binding with [3H]ketanserin
VALUE TYPE: Ki
# output: number + unit

As a guide, the following entries are already answered.
CCN(C)CCc1c[nH]c2ccc(F)cc12 | 140 nM
CC(CNC(=N)CNc1ccccc1)Oc1cccc(Cl)c1.O=CO (stereo not drawn) [BW501C67, formate] | 0.42 nM

Now consider a different molecule.
**Query** Quickly give me recorded Ki for CCN(C)CCc1c[nH]c2cccc(O)c12 [Compound 4-HO-MET, 4-hydroxy-N-methyl-N-ethyltryptamine]
**Result** 106 nM

###

Assay: in vitro
Set-up: dose or concentration left out as unconfirmed
Settings: rat, brain homogenate
Recorded fraction unbound at 4 h, one value per entry.
Answer with the value's number alone.

As a guide, the following entries are already answered.
CC(C)COc1ccc(CNC(=O)N(Cc2ccc(F)cc2)C2CCNCC2)cc1.Cl [Compound 7, hydrochloride] | 0.002
COc1cccc(CCc2ccccc2OCC(CN(C)C)OC(=O)CCC(=O)O)c1 (stereo not shown) [sarpogrelate] | 0.054
CC(C)COc1ccc(CNC(=O)N(Cc2ccc(F)cc2)C2CCN(C(=O)CC[C@H](N)C(=O)O)CC2)cc1 [Compound 14a] | 0.078

Now consider a different molecule.
**Query** Quickly give me recorded fraction unbound at 4 h for COc1cccc(C(=O)Nc2ccc(OCCN3CCOCC3)c(-c3ccnn3C)c2)c1 [temanogrel]
**Result** 0.108

###

Target: 5-HT2A receptor (Homo sapiens, UniProt P28223)
Construct: WuXi AppTec (Hong Kong) Limited (contract laboratory that ran the assay)
Sequence (P28223 whole entry): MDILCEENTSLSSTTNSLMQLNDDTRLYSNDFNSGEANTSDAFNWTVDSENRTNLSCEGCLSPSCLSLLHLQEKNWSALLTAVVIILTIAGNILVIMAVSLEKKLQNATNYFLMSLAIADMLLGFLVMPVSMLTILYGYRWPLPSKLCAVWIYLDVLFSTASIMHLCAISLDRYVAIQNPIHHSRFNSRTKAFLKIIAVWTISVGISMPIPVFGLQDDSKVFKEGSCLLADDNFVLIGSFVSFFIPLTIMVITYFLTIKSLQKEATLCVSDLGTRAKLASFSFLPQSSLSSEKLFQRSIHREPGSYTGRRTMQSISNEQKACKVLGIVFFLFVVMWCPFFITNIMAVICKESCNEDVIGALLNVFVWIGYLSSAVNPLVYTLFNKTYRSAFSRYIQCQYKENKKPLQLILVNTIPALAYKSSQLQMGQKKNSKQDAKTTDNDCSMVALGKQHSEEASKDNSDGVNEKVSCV
Experiment: 5-HT2A radioligand binding with [3H]ketanserin
Conditions: HEK293 stable cell line, 1 nM [3H]ketanserin, 1 h, 25° C.; read-out: 5-HT2A Ki (nM) ([3H]ketanserin)
VALUE TYPE: Ki
# output: number + unit

As a guide, the following entries are already answered.
COc1cccc(OC(C)CNC(=N)Cc2cccc(C)c2)c1.O=C(O)C(F)(F)F (stereo not shown) [xylamidine] | 0.55 nM
CC(C)COc1ccc(CNC(=O)N(Cc2ccc(F)cc2)C2CCN(C(=O)CC[C@H](N)C(=O)O)CC2)cc1 [Compound 14a] | 3.83 nM
CCCc1cc(OC)c(CC(C)N)cc1OC (stereo not shown) [DOPR, 2,5-dimethoxy-4-propylamphetamine] | 17.6 nM

Now consider a different molecule.
**Query** Quickly give me recorded Ki for COc1cc(CCN)cc(OC)c1OC [mescaline]
**Result** 17400 nM

###

Assay: in vivo
Type: in vivo, rat
Conditions: male, Sprague Dawley, rat, in vivo; calculated using 10 mg/kg PK data; read-out: Free Brain:Free Plasma (0.167 h)
VALUE TYPE: Kp at 0.167 h
Answer with the value's number alone.

COc1cccc(C(=O)Nc2ccc(OCCN3CCOCC3)c(-c3ccnn3C)c2)c1 [temanogrel] | 0.33

**Query** Quickly give me recorded Kp at 0.167 h for COc1cccc(CCc2ccccc2OCC(CN(C)C)OC(=O)CCC(=O)O)c1 (stereo not drawn) [sarpogrelate]
**Result** 0.37

**Query** Quickly give me recorded Kp at 0.167 h for CC(C)COc1ccc(CNC(=O)N(Cc2ccc(F)cc2)C2CCN(C(=O)CC[C@H](N)C(=O)O)CC2)cc1 [Compound 14a]
**Result** 0.048

###

Recorded half-life, one value per entry.
Experiment: in vivo
Settings: male, Sprague Dawley, rat, in vivo, sc, 1 mg/kg
Numeric answer only, unit h assumed.

CC(C)COc1ccc(CNC(=O)N(Cc2ccc(F)cc2)C2CCN(C(=O)CC[C@H](N)C(=O)O)CC2)cc1 [Compound 14a] | 0.85

**Query** Quickly give me recorded half-life for CC(CNC(=N)CNc1ccccc1)Oc1cccc(Cl)c1.O=CO (centres unmarked)
**Result** 3.11

###

Assay: in vivo
Settings: male, Sprague Dawley, rat, in vivo, sc, 1 mg/kg
Procedure: The pharmacokinetics of peripheral 5-HT2A antagonists were studied in the plasma (Tables 11 and 12) and brains (Table 13 and 14) of rats after subcutaneous (SC) dosing. The results were used to interpret the in vivo pharmacological results. Animals. Male Sprague Dawley rats, aged 8-12 weeks. were used in these studies. Four rats were housed in each cage. […] Temperature and humidity were recorded by an auto-controlled data logger system. […]
VALUE TYPE: Cmax (ng/mL)
Numeric answer only, unit ng/mL assumed.

**Query** Quickly give me recorded Cmax for CC(C)COc1ccc(CNC(=O)N(Cc2ccc(F)cc2)C2CCN(C(=O)CC[C@H](N)C(=O)O)CC2)cc1 [Compound 14a]
**Result** 271

###

Assay: Metabolic stability in human liver microsomes
Type: in vitro ADME
Conditions: both sexes, human, microsomes, pH 7.4; HLM, 1 μM, 0.50 mg protein per mL, NADPH
VALUE TYPE: half-life at 1 μM (min)
Numeric answer only, unit min assumed.

**Query** Quickly give me recorded half-life at 1 μM for CC(CNC(=N)CNc1ccccc1)Oc1cccc(Cl)c1.O=CO (centres unmarked)
**Result** 7.2
